- study.system: cGMP-PDE (Homo sapiens, UniProt O76074)
- assay.details: Inhibitory effect on cGMP-PDE
- Assay type: biochemical
- assay.context: PDE IC isolated from human platelets; substrate 3H-cGMP; tested as 2HCl salt (2, 2(3)), CH3SO3H salt (2(5), 2(7), 5, 6(1)), free base (4, 7, 8)
Hi! Just check whether IC50 is below 400 nM. Below gives Criterion met, equal or above gives Criterion not met.

# input Does `O=C(O)C1CCN(c2nc3c(c(NCc4ccc5c(c4)OCO5)n2)CSCC3)CC1` have IC50 strictly under 400 nM?
# output Criterion met

# input Criterion: IC50 strictly below 400 nM. Is it met by `c1ccc(CNc2cc(-c3ccccc3)nn3cnnc23)cc1` ?
# output Criterion not met

# input Strictly below 400 nM: is that where IC50 of `Cc1csc2nc(-n3ccnc3)nc(NCc3ccccc3)c12` sits?
# output Criterion met

# input Please let me know if `c1ccc(CNc2nc(-n3ccnc3)nc3c2SCCC3)cc1` shows IC50 below 400 nM.
# output Criterion met

# input Please determine if `c1ccc(CNc2nc(-n3ccnc3)nc3c2CSCC3)cc1` is below 400 nM in terms of IC50.
# output Criterion met

# input Lab log: compare recorded IC50 with 400 nM; is it strictly lower for `c1cn(-c2nc3c(c(NCc4ccc5c(c4)OCO5)n2)CSCC3)cn1` ?
# output Criterion met

# input Report whether reported IC50 is lower than 400 nM (strictly) for `c1ccc(CNc2cc(-c3ccccc3)nc3ncnn23)cc1`
# output Criterion not met

# input Lab note: confirm whether the reported IC50 for this molecule is below 400 nM, equality not counting. molecule: `O=S1(=O)CCc2nc(-n3ccnc3)nc(NCc3ccccc3)c2C1`
# output Criterion met

# input Consider the molecule [O-][S+]1CCCc2nc(-n3ccnc3)nc(NCc3ccccc3)c21 (stereo not drawn) . Is its IC50 strictly less than 400 nM?
# output Criterion not met

These measurements were taken from patent US5869486A.
